Reported self-cleavage values are given for each entry in this list.
B1: Hairpin Ribozyme (parent)
chain: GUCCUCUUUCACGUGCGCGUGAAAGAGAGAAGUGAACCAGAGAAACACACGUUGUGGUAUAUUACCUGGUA

Variants of: B1
Assay text: self-cleavage, relative activity (ratio to wild type); higher = more cleavage; co-transcriptional
Assay metric: self-cleavage

[[record]]
mutations = "C10G G13C"
number = 0.401

[[record]]
mutations = "G51A U63C"
number = 0.109

[[record]]
mutations = "C18A C46A"
number = 0.231

[[record]]
mutations = "A47G U58C"
number = 0.17

[[record]]
mutations = "C18A G51A"
number = 1.01

[[record]]
mutations = "A31C U58G"
number = 0.131

[[record]]
mutations = "A30U G68C"
number = 0.118

[[record]]
mutations = "A24U C50U"
number = 0.307

[[record]]
mutations = "G56U U70C"
number = 0.271

[[record]]
mutations = "U5G A30G"
number = 0.144

[[record]]
mutations = "A23U A49C"
number = 0.117

[[record]]
mutations = "A35C U60A"
number = 0.664

[[record]]
mutations = "U8C U20C"
number = 0.184

[[record]]
mutations = "U63A A64G"
number = 0.0955

[[record]]
mutations = "A26G G32U"
number = 0.121

[[record]]
mutations = "A11U A28U"
number = 0.494

[[record]]
mutations = "C37U C65G"
number = 0.163

[[record]]
mutations = "A41U G69C"
number = 0.55

[[record]]
mutations = "U5G A43U"
number = 0.155

[[record]]
mutations = "A28G U60A"
number = 0.661

[[record]]
mutations = "G25A A41C"
number = 0.814

[[record]]
mutations = "A41G G51C"
number = 0.677

[[record]]
mutations = "U55A U60A"
number = 0.245

[[record]]
mutations = "U9G C37G"
number = 0.229

[[record]]
mutations = "G42U G68A"
number = 0.129

[[record]]
mutations = "U55C U67A"
number = 0.177

[[record]]
mutations = "A35C A59U"
number = 0.105

[[record]]
mutations = "A61G C65G"
number = 0.303

[[record]]
mutations = "U67G G69C"
number = 0.13

[[record]]
mutations = "A30G A61C"
number = 0.109

[[record]]
mutations = "G51U G54C"
number = 0.135

[[record]]
mutations = "G17A A41C"
number = 1.38

[[record]]
mutations = "C16A A23G"
number = 0.783

[[record]]
mutations = "G40C A43C"
number = 0.168

[[record]]
mutations = "G13U C37A"
number = 0.249

[[record]]
mutations = "A24C G42C"
number = 0.342

[[record]]
mutations = "A35U A36C"
number = 0.264

[[record]]
mutations = "A22C U52G"
number = 0.726

[[record]]
mutations = "U14C A49G"
number = 0.553

[[record]]
mutations = "U14C G34C"
number = 1.5

[[record]]
mutations = "U8A U52G"
number = 0.518

[[record]]
mutations = "G19A G21A"
number = 0.659

[[record]]
mutations = "G42U U67A"
number = 0.151

[[record]]
mutations = "A28G A30C"
number = 0.0631

[[record]]
mutations = "G42C C66G"
number = 0.137

[[record]]
mutations = "U14G C46G"
number = 0.131

